target: human c-Met (Homo sapiens)
Sequence (P08581 25-1390): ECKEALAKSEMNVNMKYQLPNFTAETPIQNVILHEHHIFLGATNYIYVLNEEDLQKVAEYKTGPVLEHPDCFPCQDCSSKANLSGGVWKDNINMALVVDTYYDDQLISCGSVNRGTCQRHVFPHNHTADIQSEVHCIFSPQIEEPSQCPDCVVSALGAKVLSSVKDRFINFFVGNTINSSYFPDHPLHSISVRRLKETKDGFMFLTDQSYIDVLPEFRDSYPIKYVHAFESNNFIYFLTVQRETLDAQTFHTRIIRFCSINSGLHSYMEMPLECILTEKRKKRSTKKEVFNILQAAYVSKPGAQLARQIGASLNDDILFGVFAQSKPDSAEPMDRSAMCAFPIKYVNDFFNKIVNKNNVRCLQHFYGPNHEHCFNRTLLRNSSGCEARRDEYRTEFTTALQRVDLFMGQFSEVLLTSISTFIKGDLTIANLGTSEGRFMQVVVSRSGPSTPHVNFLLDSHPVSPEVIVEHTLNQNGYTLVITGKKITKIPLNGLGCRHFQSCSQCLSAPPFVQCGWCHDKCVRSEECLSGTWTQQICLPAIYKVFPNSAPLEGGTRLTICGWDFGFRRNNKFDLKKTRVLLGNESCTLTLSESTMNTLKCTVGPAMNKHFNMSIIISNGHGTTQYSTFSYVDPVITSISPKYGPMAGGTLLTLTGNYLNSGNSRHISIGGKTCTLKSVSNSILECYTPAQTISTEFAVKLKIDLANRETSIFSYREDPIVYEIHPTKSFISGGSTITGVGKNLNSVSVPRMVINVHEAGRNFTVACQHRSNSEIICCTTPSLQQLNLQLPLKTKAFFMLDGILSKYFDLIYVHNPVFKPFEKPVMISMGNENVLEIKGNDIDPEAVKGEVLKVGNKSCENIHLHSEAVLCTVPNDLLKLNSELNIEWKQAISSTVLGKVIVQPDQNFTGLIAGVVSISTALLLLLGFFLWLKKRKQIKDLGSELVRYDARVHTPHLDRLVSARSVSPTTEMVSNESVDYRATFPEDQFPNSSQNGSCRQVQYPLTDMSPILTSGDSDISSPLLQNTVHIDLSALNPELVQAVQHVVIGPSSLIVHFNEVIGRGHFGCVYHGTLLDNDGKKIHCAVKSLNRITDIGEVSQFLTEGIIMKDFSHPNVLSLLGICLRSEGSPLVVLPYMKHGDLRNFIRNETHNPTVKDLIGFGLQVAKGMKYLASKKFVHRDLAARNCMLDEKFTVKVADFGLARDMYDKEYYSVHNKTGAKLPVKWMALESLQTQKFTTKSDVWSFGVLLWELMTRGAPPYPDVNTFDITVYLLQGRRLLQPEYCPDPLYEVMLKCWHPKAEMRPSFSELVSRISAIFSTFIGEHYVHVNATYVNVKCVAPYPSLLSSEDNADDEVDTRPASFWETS
Where a name gives a salt, the structure may show the parent alone.
In this section, each of the molecules is paired with its reported IC50.
Give just the numeric value; nM need not be written.

The cases that follow already have their IC50 on record.
CCN1CCC(n2ncc(-c3cnc4[nH]cc(Cc5c(F)c(OC)cc(OC)c5F)c4c3)c2Cl)CC1 [Hydrochloride of embodiment 40]	14.6
COc1cc(OC)c(F)c(Cc2c[nH]c3ncc(-c4ccc(N5CCN(C)CC5)nc4)cc23)c1F [Trifluoroacetate salt of embodiment 62]	132
COc1cc(OC)c(Cl)c(Cc2c[nH]c3ncc(-c4cnn(C5CCNCC5)c4)cc23)c1Cl [Trifluoroacetate salt of embodiment 49]	8.8
CCN1CCC(n2cc(-c3cnc4[nH]cc(Cc5c(F)c(OC)cc(OC)c5F)c4c3)c(C#N)n2)CC1 [Hydrochloride of embodiment 42]	7.1

# query: IC50 | item COc1cc(OC)c(F)c(Cc2c[nH]c3ncc(-c4cnn(CCO)c4)cc23)c1F [Hydrochloride of embodiment 46] | system: human c-Met (Homo sapiens)
8.9

Field: IC50 (human c-Met (Homo sapiens)). Entry: CCN1CCC(n2cc(-c3cnc4[nH]nc(Cc5c(F)ccc(OC)c5F)c4c3)cn2)CC1 [Hydrochloride of embodiment 4]
177
